Target: UniProtKB P41597
Sequence (P41597 whole entry, species assumed): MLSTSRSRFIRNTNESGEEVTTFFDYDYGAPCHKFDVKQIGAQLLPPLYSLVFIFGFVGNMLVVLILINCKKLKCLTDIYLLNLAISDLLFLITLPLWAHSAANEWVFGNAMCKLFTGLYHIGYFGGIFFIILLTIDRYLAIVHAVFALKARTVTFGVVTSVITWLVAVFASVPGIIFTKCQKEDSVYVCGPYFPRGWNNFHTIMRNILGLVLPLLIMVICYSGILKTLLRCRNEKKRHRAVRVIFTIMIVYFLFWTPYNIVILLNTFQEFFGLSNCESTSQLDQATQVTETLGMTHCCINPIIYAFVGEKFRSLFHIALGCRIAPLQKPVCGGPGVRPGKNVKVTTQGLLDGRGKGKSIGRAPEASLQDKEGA
Assay: Calcium activity assayed on the FLIPR Tetra in HEK-Gqi5 cells stably expressing CCR2
Details: FLIPR Tetra calcium assay
Measurement name: pIC50
Worth noting: pIC50 values are minus log10 of concentrations stated in mol/L.

Which pIC50 value belongs to O=S(=O)(Nc1cc(Cl)ccc1[S+]([O-])Cc1c[nH]cn1)c1ccc(Cl)c(C(F)(F)F)c1 (centres unmarked) ? 6.80

pIC50 lookup needed for Cc1ccc(S(=O)(=O)Nc2cc(Cl)ccc2S(C)(=O)=O)cc1[N+](=O)[O-] , thanks. 6.68

Which pIC50 value belongs to O=S(=O)(Nc1cc(Cl)ccc1[S+]([O-])Cc1cccnc1F)c1cc2ccccc2o1 (centres unmarked) ? 7.10

Suppose we examine the molecule C[S+]([O-])c1ccc(Cl)cc1NS(=O)(=O)c1cc2cc(Cl)ccc2o1 (centres unmarked) ; what pIC50 value has been reported? 6.18

Consider the molecule CCSc1ccc(Cl)cc1NS(=O)(=O)c1ccc(Cl)c(C(F)(F)F)c1 and give its measured pIC50. 6.71
